Give measured koff for each item. Keep answers brief.
# Tested Target: T1, human PD-L1-his tag protein (human, UniProt Q9NZQ7 19-238)
# T1 construct: also called human PD-L1-His protein; recombinant PD-L1 protein; not shown: his tag
# T1 sequence (Q9NZQ7 19-238 limits assumed): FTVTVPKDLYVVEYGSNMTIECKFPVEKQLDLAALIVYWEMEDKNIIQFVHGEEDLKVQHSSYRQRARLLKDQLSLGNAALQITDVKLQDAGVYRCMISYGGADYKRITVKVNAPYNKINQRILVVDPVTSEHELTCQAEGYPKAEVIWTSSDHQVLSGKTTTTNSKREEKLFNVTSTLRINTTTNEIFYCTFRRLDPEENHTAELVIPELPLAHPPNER
# Assay Overview: SPR (Biacore), affinity ranking, PDL1-His
Respond with the bare value in s⁻¹.

Exam item: Kindly indicate its recorded koff. Item: Hu67F3G7-10 (antibody, V domains shown, humanized) VH: EVQLVQSGAEVKKPGASVKVSCKASGYIFTDFWVSWVRQAPGKGLEWIGEIYPNSGVSRYNEKFKGRVTMTVDKSISTAYMELSRLRSDDTAVYYCTKYFGYTYWFGYWGQGTLVTVSS VL: DTVLTQSPSSLSASVGDRVTITCRASKSVSTYMHWYQQKPGKAPKLLIYSASHLESGVPSRFSGSGSGTDFTLTISSLQPEDFATYYCQQSNELPVTFGGGTKVEIK
Marked response: 9.34e-05

Exam item: Answer with the recorded koff for the binder listed here: Hu67F3G7-6 (antibody, V domains shown, humanized) VH: EVQLVQSGAEVKKPGASVKVSCKASGYTFTDFWVSWVRQAPGQGLEWMGEIYPNSGVSRYNEKFKGRVTMTVDKSISTAYMELSRLRSDDTAVYYCARYFGYTYWFGYWGQGTLVTVSS VL: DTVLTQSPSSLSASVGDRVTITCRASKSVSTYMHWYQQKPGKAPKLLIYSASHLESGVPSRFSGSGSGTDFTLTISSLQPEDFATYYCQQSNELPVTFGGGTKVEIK
Marked response: 0.000118
